tested on: Caco-2 cells; test: Proliferation assay, Caco-2; format: cell-based; conditions: Homo sapiens, 96 h; Caco-2, 4 days, crystal violet; read-out: Inhibition of Caco-2 cell proliferation IC50
# note: exactly 400 nM is not below, so it is No; use Yes for IC50 strictly under it

Illustrative cases are given below, each with its answer.
# input Determine if COc1cc(F)ccc1-c1nc(Nc2cccc(CS(C)(=O)=O)c2)ncc1F shows IC50 strictly lower than 400 nM.
# output Yes

# input Determine if CS(=O)(=O)Cc1cccc(Nc2ncc(F)c(-c3cccc4c3OCCC4)n2)c1 shows IC50 strictly lower than 400 nM.
# output Yes

# input Determine if COc1cc(F)ccc1-c1nc(Nc2cc(F)cc(CS(C)(=O)=O)c2)ncc1F shows IC50 strictly lower than 400 nM.
# output Yes

More entries:
# input Determine if COCCS(=O)(=O)Cc1cccc(Nc2ncc(F)c(-c3ccc(F)cc3OCc3ccccc3)n2)c1 shows IC50 strictly lower than 400 nM.
# output No

# input Determine if CS(=O)(=O)Cc1cccc(Nc2ncc(F)c(-c3ccc(F)cc3OCc3cccnc3)n2)c1 shows IC50 strictly lower than 400 nM.
# output No

# input Determine if COc1cc(F)ccc1-c1nc(Nc2cccc(CS(=O)(=O)CCO)c2)ncc1F shows IC50 strictly lower than 400 nM.
# output No

# input Determine if CS(=O)(=O)Cc1cccc(Nc2ncc(F)c(-c3ccc(F)cc3OCc3ccccc3)n2)c1 shows IC50 strictly lower than 400 nM.
# output No
